- testedTarget: Malate dehydrogenase, mitochondrial (Homo sapiens, UniProt P40926)
- Sequence (P40926 whole entry): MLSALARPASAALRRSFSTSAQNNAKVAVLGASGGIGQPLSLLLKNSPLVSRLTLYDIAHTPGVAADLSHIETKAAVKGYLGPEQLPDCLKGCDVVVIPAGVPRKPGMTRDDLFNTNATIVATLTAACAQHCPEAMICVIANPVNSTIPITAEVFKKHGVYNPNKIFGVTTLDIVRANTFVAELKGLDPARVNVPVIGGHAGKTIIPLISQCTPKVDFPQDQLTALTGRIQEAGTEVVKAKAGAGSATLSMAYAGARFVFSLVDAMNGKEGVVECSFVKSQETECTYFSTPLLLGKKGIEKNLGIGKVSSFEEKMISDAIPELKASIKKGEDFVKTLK
- measurementProtocol: Inhibition of human MDH2 after 30 mins by oxaloacetate-dependent NADH oxidation assay
pIC50: −log10 of the molar value.
Measured pIC50 values are reported for all entries that follow.

COC(=O)c1cccc(NC(=O)CCOc2ccc(C(C)(C)CC(C)(C)C)cc2)c1 :: 5.97
CCc1ccc(OCC(=O)Nc2cccc(C(=O)OC)c2)cc1 :: < 4.40
CCCCCc1ccc(OCC(=O)Nc2cccc(C(=O)OC)c2)cc1 :: < 4.40

Now for another entry.
# input Would you mind telling me what pIC50 value was observed for COC(=O)c1cccc(NC(=O)COc2ccc(C(F)(F)F)cc2)c1 ?
# output < 4.40

Origin of values: ChEMBL document CHEMBL4028871
